# Tested on: C. albicans 256 HUSI-PUJ
# Format: cell-based, Candida albicans
# Condition: 256 HUSI-PUJ, 24 h
Non-standard residues stand in square brackets, D forms with d. Residues, ends and D or L forms follow the SMILES beside them. Ahx = NCCCCCC(=O)O
MFC for assorted compounds

Compound	MFC
CC(C)C[C@H](NC(=O)[C@H](CC(C)C)NC(=O)[C@@H](N)CCCNC(=N)N)C(=O)N[C@@H](CCCNC(=N)N)C(=O)NCCCCCC(=O)N[C@@H](CCCNC(=N)N)C(=O)N[C@@H](CCCNC(=N)N)C(=O)N[C@@H](Cc1c[nH]c2ccccc12)C(=O)N[C@@H](CCC(N)=O)C(=O)N[C@@H](Cc1c[nH]c2ccccc12)C(=O)N[C@@H](CCCNC(=N)N)C(N)=O [C4] (H-RLLR[Ahx]RRWQWR-NH2; N-terminus assumed)	> 122 µM
CC(C)C[C@H](NC(=O)[C@H](CC(C)C)NC(=O)[C@H](CCCNC(=N)N)NC(=O)CCCCCNC(=O)[C@H](CCCNC(=N)N)NC(=O)[C@H](Cc1c[nH]c2ccccc12)NC(=O)[C@H](CCC(N)=O)NC(=O)[C@H](Cc1c[nH]c2ccccc12)NC(=O)[C@H](CCCNC(=N)N)NC(=O)[C@@H](N)CCCNC(=N)N)C(=O)N[C@@H](CCCNC(=N)N)C(N)=O [C2] (H-RRWQWR[Ahx]RLLR-NH2; N-terminus assumed)	> 122 µM

###

# System: C. albicans ATCC SC5314
# Assay type: cell-based, Candida albicans
# Condition: ATCC SC5314, 24 h
Non-standard residues stand in square brackets, D forms with d. Residues, ends and D or L forms follow the SMILES beside them. Ahx = NCCCCCC(=O)O
MFC for assorted molecules

Molecule	Target or system	Inequality symbol	MFC (µM)
CC(C)C[C@H](NC(=O)[C@H](CC(C)C)NC(=O)[C@@H](N)CCCNC(=N)N)C(=O)N[C@@H](CCCNC(=N)N)C(=O)NCCCCCC(=O)N[C@@H](CCCNC(=N)N)C(=O)N[C@@H](CCCNC(=N)N)C(=O)N[C@@H](Cc1c[nH]c2ccccc12)C(=O)N[C@@H](CCC(N)=O)C(=O)N[C@@H](Cc1c[nH]c2ccccc12)C(=O)N[C@@H](CCCNC(=N)N)C(N)=O [C4] (H-RLLR[Ahx]RRWQWR-NH2; N-terminus assumed)	C. albicans ATCC SC5314	>	122
CC(C)C[C@H](NC(=O)[C@H](CC(C)C)NC(=O)[C@H](CCCNC(=N)N)NC(=O)[C@H](CCCNC(=N)N)NC(=O)[C@H](CC(C)C)NC(=O)[C@H](CC(C)C)NC(=O)[C@H](CCCNC(=N)N)NC(=O)CCCCCNC(=O)[C@H](CCCCN)NC(=O)[C@H](Cc1c[nH]c2ccccc12)NC(=O)[C@H](CCC(N)=O)NC(=O)[C@H](Cc1c[nH]c2ccccc12)NC(=O)[C@H](CCCCN)NC(=O)[C@@H](N)CCCCN)C(=O)N[C@@H](CCCNC(=N)N)C(N)=O [C6] (H-KKWQWK[Ahx]RLLRRLLR-NH2)	C. albicans ATCC SC5314	=	48
CC(C)C[C@H](NC(=O)[C@H](CC(C)C)NC(=O)[C@H](CCCCN)NC(=O)[C@H](CCCCN)NC(=O)[C@H](CC(C)C)NC(=O)[C@H](CC(C)C)NC(=O)[C@H](CCCCN)NC(=O)CCCCCNC(=O)[C@H](CCCNC(=N)N)NC(=O)[C@H](Cc1c[nH]c2ccccc12)NC(=O)[C@H](CCC(N)=O)NC(=O)[C@H](Cc1c[nH]c2ccccc12)NC(=O)[C@H](CCCNC(=N)N)NC(=O)[C@@H](N)CCCNC(=N)N)C(=O)N[C@@H](CCCCN)C(N)=O [C5] (H-RRWQWR[Ahx]KLLKKLLK-NH2)	C. albicans ATCC SC5314	=	97
CC(C)C[C@H](NC(=O)[C@H](CC(C)C)NC(=O)[C@H](CCCCN)NC(=O)[C@H](CCCCN)NC(=O)[C@H](CC(C)C)NC(=O)[C@H](CC(C)C)NC(=O)[C@H](CCCCN)NC(=O)CCCCCNC(=O)[C@H](CCCCN)NC(=O)[C@H](Cc1c[nH]c2ccccc12)NC(=O)[C@H](CCC(N)=O)NC(=O)[C@H](Cc1c[nH]c2ccccc12)NC(=O)[C@H](CCCCN)NC(=O)[C@@H](N)CCCCN)C(=O)N[C@@H](CCCCN)C(N)=O [C7] (H-KKWQWK[Ahx]KLLKKLLK-NH2)	C. albicans ATCC SC5314	>	101
CC(C)C[C@H](NC(=O)[C@H](CC(C)C)NC(=O)[C@H](CCCNC(=N)N)NC(=O)CCCCCNC(=O)[C@H](CCCNC(=N)N)NC(=O)[C@H](Cc1c[nH]c2ccccc12)NC(=O)[C@H](CCC(N)=O)NC(=O)[C@H](Cc1c[nH]c2ccccc12)NC(=O)[C@H](CCCNC(=N)N)NC(=O)[C@@H](N)CCCNC(=N)N)C(=O)N[C@@H](CCCNC(=N)N)C(N)=O [C2] (H-RRWQWR[Ahx]RLLR-NH2; N-terminus assumed)	C. albicans ATCC SC5314	>	122

Measured values drawn from paper PMC9686985 for this set.
